Assay System: Torsin-1A-interacting protein 1 (Homo sapiens)
Assay Explanation: LAP1 binders from COS7 cell lysate, primary screen, small-molecule microarray, 635/667 nm fluorescence (AID 1116)
Protocol Conditions: COS7-hLAP1 lysate binding, 635 nm fluorescence, higher = more signal
Assay Metric: composite z-score

// below: answered molecules
Molecule	composite z-score
CO[C@@H]1COC(=O)CC=C[C@@H](C)COC(=O)[C@H](COCc2ccccc2)NC(=O)CC=C[C@H]1C	0.325
CCc1cc2c(nc1CC)CCN(CCC(C)=NO[C@@H](C)c1cc(-c3c(C)cc(C)cc3C)no1)C2	0.0675
COc1ccc(-c2nc3c(c4c2C[C@H](C)OC4)CN(CCC(C)C)CC3)cc1	0.269
CCc1cc2c(nc1CC)CCN(CCC(C)=NOC[C@@H](O)[C@H]1O[C@@H]3OC(C)(C)O[C@@H]3[C@H]1O)C2	0.455
CCCC[C@H]1OB(O)C[C@H]2C1=C(C)C[C@H]1C(=O)N(C)C(=O)[C@H]12	-0.368

Qu. Any idea what composite z-score came out for CCOC(=O)C1=CC[C@H]2C(=O)N(CC)C(=O)[C@@H]12 on Torsin-1A-interacting protein 1 (Homo sapiens)?
Ans. 0.184

Qu. Then this molecule: COC(=O)CC1OC1[C@H](C)[C@@H](OC)C(C)C (stereo not given in full)
Ans. 0.601

Qu. Now the molecule COC(=O)[C@H]1COC(c2ccc(OCCCO)cc2)=N1
Ans. 1.94

Qu. What do you get for COCCOC(=O)N1C(=O)[C@@]2(c3cc(C#CC4(O)CCCCCC4)ccc31)[C@H](C(=O)N1CCN(c3ncccn3)CC1)[C@H]1C(=O)O[C@H](c3ccccc3)[C@H](c3ccccc3)N1[C@@H]2c1ccc(OCCO)cc1 ?
Ans. 0.889

Qu. Another molecule to check: CCCCC(=C=CC[C@H](O)c1ccccc1OCCO)C[C@H](O)COCc1ccccc1
Ans. 1.65

Qu. And CN1C(=O)C2C(C1=O)C1C=C(CCCO)C2C(c2ccc(CN3CCCC3)cc2)N1C (stereo not given) ?
Ans. 0.0993

Qu. For CC(C)=CCCC(C)=CCON=C1C[C@@H](O)[C@@H](O)[C@@H]2[C@@H]3C(=O)N(C[C@@H]4CCCO4)C(=O)[C@@H]3CC[C@@H]12 then?
Ans. 0.101

====

Entries and their measured z-score follow.
Assay Explanation: CREB reporter modulators under forskolin, primary screen, cell-based, PC12, CRE-LacZ reporter, forskolin-stimulated (AID 1146);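 further: PC12 cells with 6xCRE LacZ reporter stimulated by forskolin 10 µM; beta-galactosidase reporter signal reflecting CREB driven transcription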
Protocol Conditions: luminescence, 4.5 h, higher = more signal, called active from +8 up or from −8 down
Active and inactive are the calls of the source.

Qu. Which z-score is listed for COCCCNC(=O)[C@]1(Cc2ccccc2)N=C(c2ccc(OCCCO)cc2)O[C@@H]1c1ccccc1 ?
Ans. -1.36 (inactive)

Qu. Now consider C[C@H](c1ccccc1)N1C(=O)[C@H]2[C@H]3[C@H](O)[C@H](O)CC(=O)[C@@H]3CC[C@H]2C1=O .
Ans. -0.997 (inactive)

Qu. How about CC(C)[Si]1(C(C)C)O[C@@H](c2ccccc2)c2cc(C3CC3)nc(-c3ccccc3)c21 ?
Ans. -0.541 (inactive)

Qu. Quick one: CC(C)[C@@H](OCc1ccccc1)[C@H](C)C=NOC[C@@H](C)[C@H](OCc1ccccc1)C(C)C
Ans. -0.144 (inactive)

Qu. Entry to check: CC(=O)OC[C@H]1O[C@H](CCON=C(C)CCN2CCc3nc(-c4ccccc4)c(-c4ccccc4)cc3C2)C=C[C@@H]1OC(C)=O
Ans. 0.0929 (inactive)

Qu. Similarly, CC[C@@H](c1ccccc1)n1c(=O)n2n(c1=O)[C@H]1[C@H](O)[C@@H]3O[C@@H]3C(=NOCC(C)C)[C@H]1CC2 ?
Ans. 0.671 (inactive)

Qu. // next record CC(C)(C)N1C(=O)[C@H]2[C@H]3[C@H](O)[C@H](O)CC(=NOCc4ccccc4)[C@@H]3CC[C@H]2C1=O
Ans. 0.479 (inactive)

Qu. Follow-up item: COC(=O)[C@@]1(Cc2ccccc2)[C@H]2c3cc(C(=O)N4CCCC4)n(Cc4ccccn4)c3C[C@H]2CN1C(=O)c1ccccc1
Ans. 1.06 (inactive)

Qu. Moving on to C/C=C\[C@@H](NCc1ccccc1Br)[C@@H](O)Cc1ccccc1
Ans. 0.567 (inactive)

Qu. Follow-up item: CCCNC(=O)OC[C@H]1O[C@H](CCON=C[C@@H](OC)[C@H](C)C=CCC(=O)OC)C=C[C@@H]1Oc1ccc(OC)cc1
Ans. 0.963 (inactive)
